// data source = ChEMBL document CHEMBL1201862

system-name: Dual specificity tyrosine-phosphorylation-regulated kinase 1A (Rattus norvegicus)
Type: biochemical, Homo sapiens
Activity calls are given as the source filed them.
Catalogue of AC50 values

The examples below pair each entry with its known result.
COc1ccc(N2Nc3[nH]nc(N)c3N2)cc1 | 3.12 µM (active)
COCCCNc1c(O)nc2cccc3c2c1-c1ccccc1C3=O | 1.57 µM (active)
Oc1ccc(C2=Nn3c(nnc3-c3ccco3)SC2)cc1O | 4.01 µM (active)

Test system Dual specificity tyrosine-phosphorylation-regulated kinase 1A (Rattus norvegicus); read-out AC50; what value for C[N+](C)(CCOc1ccccc1)Cc1ccccc1 ? 10.5 µM (active)

====

system-name: 72 kDa type IV collagenase (Homo sapiens)
Sequence (P08253 whole entry): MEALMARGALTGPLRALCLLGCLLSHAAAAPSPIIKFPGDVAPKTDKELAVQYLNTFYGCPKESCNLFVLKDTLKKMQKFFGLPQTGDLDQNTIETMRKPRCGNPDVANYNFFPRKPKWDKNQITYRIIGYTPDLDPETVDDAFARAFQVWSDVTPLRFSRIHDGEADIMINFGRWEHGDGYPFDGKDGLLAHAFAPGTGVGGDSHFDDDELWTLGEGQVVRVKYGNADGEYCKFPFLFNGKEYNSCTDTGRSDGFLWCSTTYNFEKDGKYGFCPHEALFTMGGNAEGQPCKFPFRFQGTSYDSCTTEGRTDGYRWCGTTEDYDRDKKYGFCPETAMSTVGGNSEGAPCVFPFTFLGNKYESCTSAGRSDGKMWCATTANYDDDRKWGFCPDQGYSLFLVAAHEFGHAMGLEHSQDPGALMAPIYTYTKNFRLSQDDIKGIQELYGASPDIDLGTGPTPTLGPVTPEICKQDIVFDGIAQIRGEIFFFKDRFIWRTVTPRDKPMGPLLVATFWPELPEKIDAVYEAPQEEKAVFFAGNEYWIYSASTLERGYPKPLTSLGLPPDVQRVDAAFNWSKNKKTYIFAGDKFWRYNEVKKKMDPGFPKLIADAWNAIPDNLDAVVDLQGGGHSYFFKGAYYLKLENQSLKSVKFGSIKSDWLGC
procedure-details: Dose Response validation of uHTS RPN11 inhibitor hits using a MMP-2 Fluorescence assay.
Assay type: functional
Calls of active or inactive are those of the source.
Answer with one of the outcomes given here: active, inactive

Record excerpt, results attached:
CCC(CO)Oc1cc(NC(=O)c2ccc(N)cc2)c2ncn(C(C)C)c2c1 (configuration not stated) | active
COc1cc(CN2c3ccccc3C(=O)CS2(=O)=O)cc(OC)c1 | inactive
C=CCN1C(=O)/C(=C\Nc2cccc([N+](=O)[O-])c2)C(=O)N(CCCC)C1=O | inactive
Nc1ccc(/C=C/C(=O)c2ccco2)cc1 | inactive
Cc1c(NC(=O)c2cccc(-c3cc4ccccc4oc3=O)c2)cccc1-c1nc2ncccc2o1 | inactive

Answer briefly: the call reported for C=CCCC(=O)N1C[C@H]2CON(C)[C@H]2C[C@H]1c1ccc(N2CCCCC2)cc1 in this assay. inactive

Answer briefly: the call reported for COc1ccc(NC(=O)Cn2c(-c3ccc(OC)cc3)cn(-c3ccc(C)cc3)c2=O)cc1 in this assay. inactive

====

system-name: Peroxisome proliferator-activated receptor gamma/Nuclear receptor coactivator 1 (Homo sapiens);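 also: agonist potency as compounds enhance coactivator SRC-1 recruitment to PPARgamma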
Sequence (P37231 whole entry): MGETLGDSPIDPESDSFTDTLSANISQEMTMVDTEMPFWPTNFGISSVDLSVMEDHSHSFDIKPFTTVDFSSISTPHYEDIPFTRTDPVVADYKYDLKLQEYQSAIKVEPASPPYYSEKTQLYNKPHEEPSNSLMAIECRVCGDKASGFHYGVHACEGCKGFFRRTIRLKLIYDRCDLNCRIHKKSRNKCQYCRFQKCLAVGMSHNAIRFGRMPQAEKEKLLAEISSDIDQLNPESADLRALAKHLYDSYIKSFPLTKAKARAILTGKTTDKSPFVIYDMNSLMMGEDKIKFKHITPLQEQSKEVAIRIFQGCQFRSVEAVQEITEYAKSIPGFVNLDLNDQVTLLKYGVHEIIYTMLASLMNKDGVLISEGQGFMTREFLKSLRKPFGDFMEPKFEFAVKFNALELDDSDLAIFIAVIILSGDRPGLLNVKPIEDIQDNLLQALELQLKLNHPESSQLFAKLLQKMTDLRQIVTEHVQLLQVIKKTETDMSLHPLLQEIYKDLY
Sequence (Q15788 whole entry, further chain): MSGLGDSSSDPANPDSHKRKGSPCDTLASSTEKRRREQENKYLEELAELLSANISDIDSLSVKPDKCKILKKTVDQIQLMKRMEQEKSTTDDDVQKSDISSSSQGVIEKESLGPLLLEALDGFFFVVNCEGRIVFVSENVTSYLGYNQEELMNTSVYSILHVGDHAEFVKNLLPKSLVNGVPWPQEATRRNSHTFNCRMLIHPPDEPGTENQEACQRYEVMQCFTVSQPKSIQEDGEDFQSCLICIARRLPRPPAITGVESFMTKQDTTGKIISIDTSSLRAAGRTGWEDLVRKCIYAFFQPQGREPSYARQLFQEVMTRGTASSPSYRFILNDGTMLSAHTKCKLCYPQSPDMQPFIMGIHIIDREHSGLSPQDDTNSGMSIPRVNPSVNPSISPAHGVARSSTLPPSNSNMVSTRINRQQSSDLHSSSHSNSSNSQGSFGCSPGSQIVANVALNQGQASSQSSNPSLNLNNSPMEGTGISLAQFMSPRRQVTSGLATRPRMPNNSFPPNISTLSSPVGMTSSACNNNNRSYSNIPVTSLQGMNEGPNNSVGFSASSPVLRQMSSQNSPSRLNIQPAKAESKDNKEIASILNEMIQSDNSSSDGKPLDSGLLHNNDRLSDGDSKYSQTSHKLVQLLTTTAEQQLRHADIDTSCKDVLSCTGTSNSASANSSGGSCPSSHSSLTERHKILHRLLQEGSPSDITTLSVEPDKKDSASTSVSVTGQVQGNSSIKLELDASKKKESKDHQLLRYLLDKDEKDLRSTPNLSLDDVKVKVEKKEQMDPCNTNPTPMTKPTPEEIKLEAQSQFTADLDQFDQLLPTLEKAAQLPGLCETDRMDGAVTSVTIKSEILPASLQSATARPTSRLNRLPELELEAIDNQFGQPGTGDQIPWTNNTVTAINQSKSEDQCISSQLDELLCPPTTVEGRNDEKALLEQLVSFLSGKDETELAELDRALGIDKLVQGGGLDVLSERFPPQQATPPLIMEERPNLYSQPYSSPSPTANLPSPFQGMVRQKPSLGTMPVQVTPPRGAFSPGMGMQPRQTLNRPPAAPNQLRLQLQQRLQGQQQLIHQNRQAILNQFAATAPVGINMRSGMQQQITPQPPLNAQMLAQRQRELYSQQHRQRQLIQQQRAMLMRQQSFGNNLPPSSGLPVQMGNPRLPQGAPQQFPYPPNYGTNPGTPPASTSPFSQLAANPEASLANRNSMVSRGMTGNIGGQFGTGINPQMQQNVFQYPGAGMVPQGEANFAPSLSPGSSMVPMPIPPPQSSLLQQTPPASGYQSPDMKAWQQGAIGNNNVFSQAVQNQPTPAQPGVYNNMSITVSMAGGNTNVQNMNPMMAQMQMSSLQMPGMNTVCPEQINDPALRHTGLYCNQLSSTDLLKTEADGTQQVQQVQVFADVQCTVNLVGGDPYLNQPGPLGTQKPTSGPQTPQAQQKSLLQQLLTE
Format: functional
measured-endpoint: EC50

The examples below pair each entry with its known result.
CCc1ccc(N(C(=O)c2csnn2)C(C(=O)NC(C)(C)C)c2cccnc2)cc1 (centres undefined) | > 79.4 µM (not active)
CCN(CC)C(=O)CSc1nc2ncccc2[nH]1 | > 79.4 µM (not active)
CCn1cc(S(=O)(=O)Nc2ccccc2C(F)(F)F)cn1 | > 79.4 µM (not active)

Attention now shifts to the item below.
Quick one: EC50 for CN(C)CCCN(C(=O)c1ccc(N2C(=O)CCC2=O)cc1)c1nc2c(F)cccc2s1 ? > 79.4 µM (not active)

====

system-name: Cytochrome P450 3A4 (Homo sapiens, UniProt P08684);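 also: confirmatory qHTS run detecting inhibitors and substrates of CYP3A4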
Sequence (P08684 whole entry): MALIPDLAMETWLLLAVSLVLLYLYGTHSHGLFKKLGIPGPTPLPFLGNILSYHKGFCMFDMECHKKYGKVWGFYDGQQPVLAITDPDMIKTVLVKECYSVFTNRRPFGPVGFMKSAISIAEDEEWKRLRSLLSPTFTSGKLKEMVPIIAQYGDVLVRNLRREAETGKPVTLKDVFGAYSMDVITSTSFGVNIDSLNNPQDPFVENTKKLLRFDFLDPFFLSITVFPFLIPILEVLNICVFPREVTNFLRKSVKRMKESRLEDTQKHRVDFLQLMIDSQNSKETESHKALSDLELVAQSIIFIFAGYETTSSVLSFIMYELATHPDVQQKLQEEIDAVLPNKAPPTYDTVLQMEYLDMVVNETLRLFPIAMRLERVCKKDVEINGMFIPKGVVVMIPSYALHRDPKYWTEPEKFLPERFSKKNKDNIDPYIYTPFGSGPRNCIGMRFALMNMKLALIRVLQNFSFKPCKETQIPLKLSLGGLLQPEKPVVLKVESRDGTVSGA
applied-conditions: Potency
Catalogue of AC50 values

The examples below pair each entry with its known result.
Nc1ccc(-c2ccc(N)cc2)cc1 | 25.1 µM (inconclusive)
N#CCC(=O)NC(=O)NCC1CC1 | 0.0126 µM (inconclusive)
COC(=O)[C@@H]1C[C@H]2CC[C@H](O)C[C@H]2N1CC1CC1 | 20 µM (inconclusive)

Quick one: AC50 for c1nc[nH]n1 ? 31.6 µM (inconclusive)

====

system-name: Cysteine protease ATG4B (Homo sapiens);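 also: Fluorescence-based dose-response confirmation assay measuring inhibition of ATG4B activity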
Sequence (Q9Y4P1 whole entry): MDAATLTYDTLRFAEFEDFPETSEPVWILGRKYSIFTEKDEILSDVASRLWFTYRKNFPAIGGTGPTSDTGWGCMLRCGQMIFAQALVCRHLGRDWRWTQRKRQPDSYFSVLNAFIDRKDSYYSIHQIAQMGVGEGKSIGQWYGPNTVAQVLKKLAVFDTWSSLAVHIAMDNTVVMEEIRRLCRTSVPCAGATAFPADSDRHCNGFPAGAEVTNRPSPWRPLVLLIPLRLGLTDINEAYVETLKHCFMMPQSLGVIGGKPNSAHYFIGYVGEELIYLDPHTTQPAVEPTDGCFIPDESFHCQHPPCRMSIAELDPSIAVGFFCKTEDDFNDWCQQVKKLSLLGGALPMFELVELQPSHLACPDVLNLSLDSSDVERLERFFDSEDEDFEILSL
Assay type: functional
The source made the active and inactive calls.
Catalogue of IC50 values

Cc1ccc(N2C(=O)/C(=C\Nc3ccccc3-c3nnc(S)nc3O)c3ccccc3C2=O)c(C)c1 | 14 µM (active)
Cc1ccccc1S(=O)(=O)N1[C@@H](c2ccc(Br)cc2)C(C(=O)O)=CC[C@H]1c1ccc(Cl)cc1 | 7.71 µM (active)
CCCCCC(=O)Nc1ccccc1N1CCN(c2ccccc2)CC1 | 5.74 µM (active)

Attention now shifts to the item below.
Test system Cysteine protease ATG4B (Homo sapiens); read-out IC50; what value for Oc1c(Br)cc(Br)cc1/C=N/n1c(S)nnc1-c1ccccc1 ? 8.08 µM (active)
